- System: THP-1
- assay_text: Cytotoxicity against human THP-1 cells assessed as reduction in cell viability measured after 24 hrs by Celltiter-Glo assay
- Type: functional, cell-based
- condition_label: THP-1, 24 h
endpoint_label: pIC50
Expect pIC50 as a plain number equal to -log10 of the molar concentration.

Prompt: Give its pIC50 value. Item: `CCN(CC)C(=S)SSC(=S)N(CC)CC`
Response: 5.15
